Protocol Details: Confirmatory growth inhibition assay, mycobacterium tuberculosis h37rv, with cytotoxicity (AID 1332);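 as to CC50: Vero cells exposed to compounds for 72 hours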
Recorded Conditions: M. tuberculosis H37Rv growth inhibition; measured here: Vero cell cytotoxicity
In all, about 1,100 compounds went through this assay and about 170 (15%) were called active. Not all results are given here.
Measured Metric: CC50

Solved cases below.
{"Compound": "CN(Cc1cnc2nc(N)nc(N)c2n1)c1ccc(C(=O)NC(CCC(=O)O)C(=O)O)cc1 (stereo not drawn)", "CC50": "0.048 µg/mL"}
{"Compound": "CCOc1ccc(Cc2nccc3cc(OCC)c(OCC)cc23)cc1OCC", "CC50": "> 6 µg/mL"}
{"Compound": "Cn1cnc([N+](=O)[O-])c1Sc1ncnc2nc[nH]c12", "CC50": "> 6 µg/mL"}

What value of CC50 has been recorded for this entry: `CCCCc1ccc(C(=O)O)nc1` > 6 µg/mL

// repeat for Clc1ccc(C(OCCN2CCCCC2)c2ccccc2)cc1 (stereo not drawn) and report > 6 µg/mL

---

Protocol Details: Confirmatory growth inhibition assay, mycobacterium tuberculosis h37rv, with cytotoxicity (AID 1332)
Recorded Conditions: M. tuberculosis H37Rv growth inhibition
In all, about 1,100 compounds went through this assay and about 170 (15%) were called active. How the calls were made is not given here. Only a sample is shown.
// one of y for active, n for inactive, no free text

What outcome does the record of this test show for `Cc1c(-c2ccccc2)oc2c(C(=O)OCCN3CCCCC3)cccc2c1=O` ? n

// repeat for `C[n+]1cccc(C(=O)[O-])c1` and report n

// repeat for `CCn1cc(C(=O)O)c(=O)c2cc3c(cc21)OCO3` and report n

// repeat for `CC1(C)S[C@@H]2[C@H](NC(=O)[C@H](N)c3ccccc3)C(=O)N2[C@H]1C(=O)O` and report n

// repeat for `CC(=O)N=c1sc(S(N)(=O)=O)nn1C` and report n

---

Protocol Details: Confirmatory growth inhibition assay, mycobacterium tuberculosis h37rv, with cytotoxicity (AID 1332)
Recorded Conditions: M. tuberculosis H37Rv growth inhibition
The campaign covered roughly 1,100 compounds. About 170 (15%) were called active. The rule behind the calls is not given here. These entries were drawn from the full list.
// one of yes (active), no (inactive), no free text

Some entries whose results are on file:
{"Compound": "CC(C)(C)C(=O)OCOC(=O)[C@@H]1N2C(=O)[C@@H](NC(=O)[C@H](N)c3ccccc3)[C@H]2SC1(C)C", "Discrete Label": "no"}
{"Compound": "CC(C)(C)NCC(O)COc1ccccc1C1CCCC1 (stereo not given)", "Discrete Label": "no"}
{"Compound": "CC(=O)[C@H]1CC[C@H]2[C@@H]3C=CC4=CC(=O)CC[C@@]4(C)[C@@H]3CC[C@]12C", "Discrete Label": "no"}

# ---- query compound ----
What outcome does the record of this test show for `O=C1N=C(O)CN1/N=C/c1ccc(-c2ccc([N+](=O)[O-])cc2)o1` ? no

---

Protocol Details: Confirmatory growth inhibition assay, mycobacterium tuberculosis h37rv, with cytotoxicity (AID 1332);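 as to CC50: Vero cells exposed to compounds for 72 hours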
Recorded Conditions: M. tuberculosis H37Rv growth inhibition; measured here: Vero cell cytotoxicity
The whole screen tested about 1,100 compounds, of which about 170 (15%) were called active. Not all results are given here.
Measured Metric: CC50

Solved cases below.
{"Molecule": "O=C1C(=O)c2ccccc2C(O)=C1C1CCC(c2ccc(Cl)cc2)CC1 (stereo not drawn)", "CC50": "> 6 µg/mL"}
{"Molecule": "COc1ccc2cc1Oc1ccc(cc1)C[C@H]1c3cc(c(OC)cc3CCN1C)Oc1c(OC)c(OC)cc3c1[C@H](C2)N(C)CC3", "CC50": "> 6 µg/mL"}
{"Molecule": "COC1=CC(=O)C[C@@H](C)[C@]12Oc1c(Cl)c(OC)cc(OC)c1C2=O", "CC50": "> 6 µg/mL"}
{"Molecule": "C[C@@H]1C[C@H]2[C@@H]3C[C@H](F)C4=CC(=O)C=C[C@]4(C)[C@@]3(Cl)[C@@H](O)C[C@]2(C)[C@H]1C(=O)COC(=O)C(C)(C)C", "CC50": "> 6 µg/mL"}
{"Molecule": "CCCCOc1ccc(CC(=O)NO)cc1", "CC50": "> 6 µg/mL"}
{"Molecule": "Fc1ccc([C@@H]2CCNC[C@H]2COc2ccc3c(c2)OCO3)cc1", "CC50": "4.88 µg/mL"}
{"Molecule": "C[C@H]1O[C@@H](OC2CC[C@]3(C=O)[C@H]4CC[C@]5(C)[C@@H](C6=CC(=O)OC6)CC[C@]5(O)[C@@H]4CC[C@]3(O)C2)C[C@H](O)[C@@H]1O (stereo partly drawn)", "CC50": "2.54 µg/mL"}

Next molecule, CC50 to be filled in.
What value of CC50 has been recorded for this entry: C=C1c2c(Cl)ccc(O)c2C(O)=C2C(=O)[C@]3(O)C(O)=C(C(N)=O)C(=O)[C@@H](N(C)C)[C@@H]3[C@@H](O)C12 (stereo partly drawn) > 6 µg/mL

All values here come from PubChem BioAssay AID1332.
